Reference source for all entries: paper PMC9482650

# Study system: NHERF4_4, Q86UT5
# Sequence (Q86UT5 464-550): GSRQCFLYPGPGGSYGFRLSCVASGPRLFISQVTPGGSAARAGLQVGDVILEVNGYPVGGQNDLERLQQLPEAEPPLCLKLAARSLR
# Experiment summary: holdup assay
# Set-up: key: below the threshold = too weak to quantify, mostly under pKd 3.1 to 4
# Setup conditions: plain residues with an end cap or a label only (N-terminal biotin on a linker: ado-ado)
Quantity measured: pKd

Recorded pKd, per entry:
| Binder | pKd |
| --- | --- |
| LVEEEEPMNL [HDAC7, Q8WUI4] | 3.78 |
| HLSTRQGTCV [ATRNL1, Q5VV63] | 3.94 |
| KSRPENGTVC [TMEM178B, H3BS89] | below the threshold |
| IQISELETNV [SLC1A7, O00341] | 3.85 |
| DYSNLRETDI [ADRA1D, P25100] | below the threshold |

Then this binder:
// pKd lookup, key: PLPPEEESWV [GAS2L2, Q8NHY3]
below the threshold
